Entry source: ChEMBL document CHEMBL6083254

experiment summary: Cytotoxicity against human HepG2 cells assessed as cell viability incubated for 72 hrs by MTT assay
Format: toxicity, cell-based
test settings: human, HepG2 cells
parameter: IC50 at 72 h (µM)
Give a bare numeral; the unit µM is implied.

CCCCCCCCCCCC1=N/C(=C\c2[nH]c(-c3ccc[nH]3)cc2OC)C=C1    1.71

Attention now turns to another entry.
So, "CCCCCC1=C/C(=C\c2[nH]c(-c3ccc[nH]3)cc2OC)N=C1C" ? Its IC50 at 72 h was 1.07

---

Each entry below carries its recorded IC50.
Test system: HepG2
experiment summary: Cytotoxicity against human HepG2 cells assessed as cell viability incubated for 72 hrs by MTT assay
Assay type: toxicity, cell-based
test settings: hepg2
Give a bare numeral; the unit µM is implied.

Previously resolved entries follow.
Cl.FC(F)(F)Oc1ccc(COC2=CC(c3ccc[nH]3)=N/C2=C\NC2CCCCCC2)cc1    5.72
CC(C)CN/C=C1\N=C(c2ccc[nH]2)C=C1OCc1ccccc1.Cl    8.86
CCCCCc1cc(/C=C2\N=C(c3ccc[nH]3)C=C2OCCC)[nH]c1C.Cl    3.56

So, "C1=C(Oc2ccccc2)/C(=C/NC23CC4CC(CC(C4)C2)C3)N=C1c1ccc[nH]1.Cl" ? Its IC50 was 8.57

So, "CCCOC1=CC(c2ccc[nH]2)=N/C1=C\NC12CC3CC(CC(C3)C1)C2.Cl" ? Its IC50 was 2.51

So, "CCCCCCCCCCCc1ccc(/C=C2\N=C(c3ccc[nH]3)C=C2OCC)[nH]1.Cl" ? Its IC50 was 21

So, "CCOC1=CC(c2ccc[nH]2)=N/C1=C\NC1CCCCCC1.Cl" ? Its IC50 was 2.26

So, "CC(C)CN/C=C1\N=C(c2ccc[nH]2)C=C1OC(C)C.Cl" ? Its IC50 was 7.42

So, "CCOC1=CC(c2ccc[nH]2)=N/C1=C\NCC(C)C.Cl" ? Its IC50 was 4.62

So, "CCCCCc1cc(/C=C2\N=C(c3ccc[nH]3)C=C2OCc2ccccc2)[nH]c1C.Cl" ? Its IC50 was 7.09
